# Test system: Metabolism protein genes
# method: DNA chip mRNA expression in yeast, metabolism protein genes (Table 7)
# Format: cell-based, Saccharomyces cerevisiae S288C
# measurement-context: yeast gene YLR284C
value-type: level of expressed mRNA in the presence/in the absence of chemical substance

>>> print(df.to_string())
                                   compound  recorded_value
0                              [Cl][Pb][Cl]             1.9
1  CCCCCCCCCCCCc1ccc(S(=O)(=O)[O-])cc1.[Na+] [(17), sodium dodecylbenzosulfonate]             2.9
2    C[S+](C)[O-] [(15), dimethylsulfoxide]             1.0
3                              [Cl][Hg][Cl]             3.8
4                       Oc1cc(Cl)c(Cl)cc1Cl             0.9

----------
# System: Metabolism protein genes
# method: DNA chip mRNA expression in yeast, metabolism protein genes (Table 7)
# Type: cell-based, Saccharomyces cerevisiae S288C
# measurement-context: yeast gene YOR178C
value-type: level of expressed mRNA in the presence/in the absence of chemical substance

In [3]: df
Out[3]:
                                   molecule  recorded_value
0                                    C=CC=O             1.0
1    C[S+](C)[O-] [(15), dimethylsulfoxide]             1.1
2  CN(C)C(=S)SSC(=S)N(C)C [(10), Tetramethylthiuram disulfide]             1.7
3  O=[N+]([O-])c1cc[n+]([O-])c2ccccc12 [(5), 4-nitroquinolin-N-oxide]             1.0
4  COc1cc(CNC(=O)CCCCC=CC(C)C)ccc1O [(12), 8-methyl-N-vanillyl-6-nonenamide]             1.7

----------
# Tested on: Metabolism protein genes
# method: DNA chip mRNA expression in yeast, metabolism protein genes (Table 7)
# Type: cell-based, Saccharomyces cerevisiae S288C
# measurement-context: yeast gene YKL060C
value-type: level of expressed mRNA in the presence/in the absence of chemical substance

>>> print(df.to_string())
                                   compound  recorded_value
0  O=[N+]([O-])c1cc[n+]([O-])c2ccccc12 [(5), 4-nitroquinolin-N-oxide]             1.6
1                 [Cl][Hg][Cl] [(3), HgCl2]             2.5
2  CN(C)C(=S)SSC(=S)N(C)C [(10), Tetramethylthiuram disulfide]             0.8
3      N#Cc1c(Cl)c(Cl)c(Cl)c(C#N)c1Cl [(9)]             0.3
4  CCCCCCCCCCCCc1ccc(S(=O)(=O)[O-])cc1.[Na+] [(17), sodium dodecylbenzosulfonate]             1.2
5                 [Cl][Cd][Cl] [(2), CdCl2]             0.8
6  CCCCCCCCCCCCOS(=O)(=O)[O-].[Na+] [(18), sodium lauryl sulfate]             1.7

----------
Collected level of expressed mRNA in the presence/in the absence of chemical substance values appear next to each entry.
# Tested on: Metabolism protein genes
# method: DNA chip mRNA expression in yeast, metabolism protein genes (Table 7)
# Type: cell-based, Saccharomyces cerevisiae S288C
# measurement-context: yeast gene YLR089C
value-type: level of expressed mRNA in the presence/in the absence of chemical substance

>>> print(df.to_string())
                                   compound  recorded_value
0                              [Cl][Hg][Cl]             2.1
1                              [Cl][Cd][Cl]             1.2
2    C[S+](C)[O-] [(15), dimethylsulfoxide]             1.7
3  O=[N+]([O-])c1cc[n+]([O-])c2ccccc12 [(5), 4-nitroquinolin-N-oxide]             0.8
4      CCCCC[C@H](O)CC(=O)CCc1ccc(O)c(OC)c1             1.0
5  S=C([S-])NCCNC(=S)[S-].[Zn+2] [(11), zinc N,N′-ethylenebis(dithiocarbamate)]             1.7
6  CCCCCCCCCCCCc1ccc(S(=O)(=O)[O-])cc1.[Na+] [(17), sodium dodecylbenzosulfonate]             1.2
7  CCCCCCCCCCCCOS(=O)(=O)[O-].[Na+] [(18), sodium lauryl sulfate]             1.3

----------
# System: Metabolism protein genes
# method: DNA chip mRNA expression in yeast, metabolism protein genes (Table 7)
# Assay type: cell-based, Saccharomyces cerevisiae S288C
# measurement-context: yeast gene YDR483W
Listed below: level of expressed mRNA in the presence/in the absence of chemical substance values for each entry.
value-type: level of expressed mRNA in the presence/in the absence of chemical substance

                                   compound        measurement_target  recorded_value
0    C[S+](C)[O-] [(15), dimethylsulfoxide]  Metabolism protein genes             1.5
1  CCCCCCCCCCCCc1ccc(S(=O)(=O)[O-])cc1.[Na+] [(17), sodium dodecylbenzosulfonate]  Metabolism protein genes             1.2
2                 [Cl][Pb][Cl] [(4), PbCl2]  Metabolism protein genes             2.0
3                 [Cl][Cd][Cl] [(2), CdCl2]  Metabolism protein genes             1.0

----------
# Test system: Metabolism protein genes
# method: DNA chip mRNA expression in yeast, metabolism protein genes (Table 7)
# Assay type: cell-based, Saccharomyces cerevisiae S288C
# measurement-context: yeast gene YMR323W
Kind request: treat 1 as inclusive, so level of expressed mRNA in the presence/in the absence of chemical substance at 1 or higher is fulfilled, anything lower is not fulfilled.

In [3]: df
Out[3]:
                                   compound  category_label
0                 [Cl][Cd][Cl] [(2), CdCl2]       fulfilled
1  CN(C)C(=S)SSC(=S)N(C)C [(10), Tetramethylthiuram disulfide]       fulfilled
2  Oc1cc(Cl)c(Cl)cc1Cl [(6), 2,4,5-trichlorophenol]   not fulfilled
3  S=C([S-])NCCNC(=S)[S-].[Zn+2] [(11), zinc N,N′-ethylenebis(dithiocarbamate)]       fulfilled
4  CCCCCCCCCCCCc1ccc(S(=O)(=O)[O-])cc1.[Na+] [(17), sodium dodecylbenzosulfonate]       fulfilled
5    C[S+](C)[O-] [(15), dimethylsulfoxide]       fulfilled

----------
# Tested on: Metabolism protein genes
# method: DNA chip mRNA expression in yeast, metabolism protein genes (Table 7)
# Type: cell-based, Saccharomyces cerevisiae S288C
# measurement-context: yeast gene YJL121C
Form field: level of expressed mRNA in the presence/in the absence of chemical substance (one value per entry).
value-type: level of expressed mRNA in the presence/in the absence of chemical substance

>>> df
                                   compound  recorded_value
0  CCCCCCCCCCCCOS(=O)(=O)[O-].[Na+] [(18), sodium lauryl sulfate]             1.0
1  COc1cc(CNC(=O)CCCCC=CC(C)C)ccc1O [(12), 8-methyl-N-vanillyl-6-nonenamide]             0.6
2            N#Cc1c(Cl)c(Cl)c(Cl)c(C#N)c1Cl             0.1
3    C[S+](C)[O-] [(15), dimethylsulfoxide]             1.0
4      CCCCC[C@H](O)CC(=O)CCc1ccc(O)c(OC)c1             0.7

----------
# Tested on: Metabolism protein genes
# method: DNA chip mRNA expression in yeast, metabolism protein genes (Table 7)
# Format: cell-based, Saccharomyces cerevisiae S288C
# measurement-context: yeast gene YHR025W
value-type: level of expressed mRNA in the presence/in the absence of chemical substance

>>> print(df.to_string())
                                   molecule  recorded_value
0  O=[N+]([O-])c1cc[n+]([O-])c2ccccc12 [(5), 4-nitroquinolin-N-oxide]             0.9
1  CCCCCCCCCCCCc1ccc(S(=O)(=O)[O-])cc1.[Na+] [(17), sodium dodecylbenzosulfonate]             1.0
2      CCCCC[C@H](O)CC(=O)CCc1ccc(O)c(OC)c1             0.7
3  COc1cc(CNC(=O)CCCCC=CC(C)C)ccc1O [(12), 8-methyl-N-vanillyl-6-nonenamide]             0.9
4                              [Cl][Hg][Cl]             2.4

The measurements presented in this section are drawn from patent US8192962B2.
